Data provenance is patent US20250170248A1.

Form field: DC50 (one value per entry).
# measured_on: SMARCA2 (Homo sapiens, UniProt P51531)
# Sequence (P51531 whole entry): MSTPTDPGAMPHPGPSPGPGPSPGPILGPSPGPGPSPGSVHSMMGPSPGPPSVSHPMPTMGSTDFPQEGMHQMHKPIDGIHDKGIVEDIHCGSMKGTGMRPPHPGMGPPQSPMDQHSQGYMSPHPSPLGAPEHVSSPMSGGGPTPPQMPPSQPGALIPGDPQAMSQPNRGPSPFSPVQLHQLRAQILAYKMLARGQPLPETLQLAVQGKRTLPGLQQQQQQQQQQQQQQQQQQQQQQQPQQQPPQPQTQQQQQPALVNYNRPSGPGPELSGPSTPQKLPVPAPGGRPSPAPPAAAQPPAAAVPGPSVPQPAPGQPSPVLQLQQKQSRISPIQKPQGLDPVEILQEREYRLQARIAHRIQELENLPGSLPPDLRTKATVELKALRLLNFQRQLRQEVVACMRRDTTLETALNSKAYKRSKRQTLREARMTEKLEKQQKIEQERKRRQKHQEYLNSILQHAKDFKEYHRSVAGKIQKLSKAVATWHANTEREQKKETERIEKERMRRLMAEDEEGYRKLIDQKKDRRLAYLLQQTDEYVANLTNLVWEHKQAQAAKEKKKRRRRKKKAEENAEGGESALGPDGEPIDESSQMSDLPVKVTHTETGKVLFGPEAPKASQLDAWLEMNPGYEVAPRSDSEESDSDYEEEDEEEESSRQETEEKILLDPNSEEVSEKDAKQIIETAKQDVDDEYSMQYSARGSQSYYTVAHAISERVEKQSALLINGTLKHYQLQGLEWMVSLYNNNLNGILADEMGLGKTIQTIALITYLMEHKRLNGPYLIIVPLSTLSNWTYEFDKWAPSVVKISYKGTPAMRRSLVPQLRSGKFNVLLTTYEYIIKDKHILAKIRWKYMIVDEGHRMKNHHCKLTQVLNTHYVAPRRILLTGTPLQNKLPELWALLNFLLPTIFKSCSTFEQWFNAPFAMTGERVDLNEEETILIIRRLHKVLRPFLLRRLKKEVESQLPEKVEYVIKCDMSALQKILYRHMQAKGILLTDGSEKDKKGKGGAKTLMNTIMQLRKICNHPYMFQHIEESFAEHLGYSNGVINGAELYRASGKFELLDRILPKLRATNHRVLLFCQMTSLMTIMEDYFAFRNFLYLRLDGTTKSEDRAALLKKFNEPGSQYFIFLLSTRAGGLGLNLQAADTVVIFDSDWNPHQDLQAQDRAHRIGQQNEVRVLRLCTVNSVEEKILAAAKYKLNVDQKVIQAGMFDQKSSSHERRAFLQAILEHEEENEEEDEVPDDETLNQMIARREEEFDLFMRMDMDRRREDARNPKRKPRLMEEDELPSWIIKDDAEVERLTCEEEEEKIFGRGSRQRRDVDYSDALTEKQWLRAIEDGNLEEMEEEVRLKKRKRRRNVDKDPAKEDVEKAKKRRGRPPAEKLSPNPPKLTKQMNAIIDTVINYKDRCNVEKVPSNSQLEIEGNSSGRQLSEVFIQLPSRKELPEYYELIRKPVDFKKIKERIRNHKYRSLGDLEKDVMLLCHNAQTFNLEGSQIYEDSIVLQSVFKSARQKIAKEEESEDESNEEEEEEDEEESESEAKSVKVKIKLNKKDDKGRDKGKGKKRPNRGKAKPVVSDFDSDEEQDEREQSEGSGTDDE
# protocol_details: MSD SMARCA2 degradation in A549 cell line
# Format: cell-based
# run_conditions: A549 cells, 24 h, read-out: SMARCA2 MSD A549 degradation 24 h: Average external-Abs DC50

Use these answered entries as a reference point.
compound	value_observed
C#Cc1ccc(CNC(=O)[C@@H]2C[C@@H](O)CN2C(=O)[C@@H](NC(=O)[C@H]2CCC3(CC2)C[C@H](N2CCC(c4cnc(N5CCN6c7cc(-c8ccccc8O)nnc7NC[C@H]6C5)nc4)CC2)C3)C(C)(C)C)c(F)c1 (single isomer, unassigned) [I-116]	10 to 50 nM
C#Cc1ccc(CNC(=O)[C@@H]2C[C@@H](O)CN2C(=O)[C@@H](NC(=O)N2CC3(CC(N4CCC(c5cnc(N6CCc7[nH]c8nnc(-c9ccccc9O)cc8c7[C@H]6CO)nc5)CC4)C3)C2)C(C)(C)C)cc1 [I-146]	< 10 nM

Entry C#Cc1ccc([C@H](C)NC(=O)[C@@H]2C[C@@H](O)CN2C(=O)[C@@H](c2cc(OCCN3CCN4c5cc(-c6ccccc6O)nnc5NC[C@H]4C3)no2)C(C)C)cc1 (single isomer, unassigned) [I-273] , system SMARCA2 (Homo sapiens, UniProt P51531): what DC50 was measured?
> 100 nM

###

# measured_on: SMARCA4 (Homo sapiens, UniProt P51532)
# Construct: SMARCA2/SMARCA4 protein degradation selectivity in MV4-11 cells; endogenous in cells; host or cells: MV4-11
# Sequence (P51532 whole entry): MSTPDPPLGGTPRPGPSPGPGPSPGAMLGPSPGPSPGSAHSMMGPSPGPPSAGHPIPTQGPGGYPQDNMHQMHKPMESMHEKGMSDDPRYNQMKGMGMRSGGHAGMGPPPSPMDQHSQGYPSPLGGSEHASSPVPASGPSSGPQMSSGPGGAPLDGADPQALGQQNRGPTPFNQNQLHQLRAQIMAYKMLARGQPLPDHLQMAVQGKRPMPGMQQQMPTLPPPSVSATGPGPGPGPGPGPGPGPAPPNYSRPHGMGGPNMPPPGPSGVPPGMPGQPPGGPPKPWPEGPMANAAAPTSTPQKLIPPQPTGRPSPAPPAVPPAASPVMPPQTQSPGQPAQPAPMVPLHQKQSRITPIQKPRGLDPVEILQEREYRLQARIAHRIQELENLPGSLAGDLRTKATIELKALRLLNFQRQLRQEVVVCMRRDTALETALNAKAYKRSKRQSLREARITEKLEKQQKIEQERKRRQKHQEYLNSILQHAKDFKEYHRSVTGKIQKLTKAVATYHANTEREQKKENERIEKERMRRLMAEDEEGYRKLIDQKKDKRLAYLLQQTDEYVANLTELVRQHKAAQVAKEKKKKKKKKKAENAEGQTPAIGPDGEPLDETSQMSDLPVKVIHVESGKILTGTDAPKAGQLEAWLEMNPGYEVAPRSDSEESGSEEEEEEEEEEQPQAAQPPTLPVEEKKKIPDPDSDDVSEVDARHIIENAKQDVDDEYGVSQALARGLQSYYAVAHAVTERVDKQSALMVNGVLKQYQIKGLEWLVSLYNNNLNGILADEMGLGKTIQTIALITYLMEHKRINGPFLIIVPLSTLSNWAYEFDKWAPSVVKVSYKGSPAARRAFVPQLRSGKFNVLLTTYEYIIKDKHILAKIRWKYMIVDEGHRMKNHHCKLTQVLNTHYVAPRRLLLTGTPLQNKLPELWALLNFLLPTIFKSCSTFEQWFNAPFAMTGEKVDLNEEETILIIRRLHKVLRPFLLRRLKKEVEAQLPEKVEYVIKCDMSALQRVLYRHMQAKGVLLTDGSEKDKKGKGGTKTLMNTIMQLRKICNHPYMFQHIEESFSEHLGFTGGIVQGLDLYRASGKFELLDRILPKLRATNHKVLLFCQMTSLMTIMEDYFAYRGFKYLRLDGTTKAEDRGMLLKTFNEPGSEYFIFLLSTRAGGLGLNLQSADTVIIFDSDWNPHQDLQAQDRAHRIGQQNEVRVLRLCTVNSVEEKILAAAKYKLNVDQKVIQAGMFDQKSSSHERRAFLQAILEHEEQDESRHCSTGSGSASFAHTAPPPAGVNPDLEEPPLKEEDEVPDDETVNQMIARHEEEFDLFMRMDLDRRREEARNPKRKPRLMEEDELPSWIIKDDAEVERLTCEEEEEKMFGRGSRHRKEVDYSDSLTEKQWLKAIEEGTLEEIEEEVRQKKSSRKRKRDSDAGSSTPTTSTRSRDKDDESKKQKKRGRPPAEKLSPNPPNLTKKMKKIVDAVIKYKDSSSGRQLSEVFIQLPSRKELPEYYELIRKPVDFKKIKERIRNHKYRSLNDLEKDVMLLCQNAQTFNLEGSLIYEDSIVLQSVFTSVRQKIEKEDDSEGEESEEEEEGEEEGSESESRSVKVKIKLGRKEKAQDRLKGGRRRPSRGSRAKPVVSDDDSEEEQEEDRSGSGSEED
# protocol_details: SMARCA4 Western blot degradation in MV4-11 cells
# Assay type: cell-based
# run_conditions: MV4-11 cells, 24 h; read-out: SMARCA4 MSD MV411 degradation 24 h: Mean external-Abs DC50
Form field: DC50 (one value per entry).

molecule	DC50
C#Cc1ccc([C@H](C)NC(=O)[C@@H]2C[C@@H](O)CN2C(=O)[C@@H](NC(=O)[C@H]2CCC3(CC2)C[C@H](N2CCC(c4cnc(N5CCN6c7cc(-c8ccccc8O)nnc7NC[C@H]6C5)nc4)CC2)C3)C(C)(C)C)cc1 (single isomer, unassigned) [I-57]	> 100 nM
Cc1ncsc1-c1ccc(CNC(=O)[C@@H]2C[C@@H](O)CN2C(=O)[C@@H](NC(=O)[C@H]2CC3(CC[C@H](N4CCN(c5cnc(N6CCc7[nH]c8nnc(-c9ccccc9O)cc8c7[C@H]6C)nc5)CC4)CC3)C2)C(C)(C)C)cc1 (single isomer, unassigned) [I-78]	> 100 nM
C#Cc1ccc(CNC(=O)[C@@H]2C[C@@H](O)CN2C(=O)[C@@H](NC(=O)N2CC3(CC(N4CC(N5CCC(c6cnc(N7CCc8[nH]c9nnc(-c%10ccccc%10O)cc9c8[C@H]7C)nc6)CC5)C4)C3)C2)C(C)(C)C)cc1	> 100 nM
Cc1ncsc1-c1ccc(CNC(=O)[C@@H]2C[C@@H](O)CN2C(=O)[C@@H](NC(=O)[C@H]2CCC3(CC2)C[C@H](N2CCC(c4cnc(N5CCN6c7cc(-c8ccccc8O)nnc7NC[C@H]6C5)nc4)CC2)C3)C(C)(C)C)cc1 (stereo partly drawn) [I-71]	> 100 nM
C#Cc1ccc(CNC(=O)[C@@H]2C[C@@H](O)CN2C(=O)[C@@H](NC(=O)[C@H]2CC3(C2)C[C@H](N2CCC(N4CCC(N5CCN6c7cc(-c8ccccc8O)nnc7NC[C@H]6C5)CC4)CC2)C3)C(C)(C)C)c(OC)c1 (single isomer, unassigned) [I-231]	> 100 nM

For the molecule C#Cc1ccc(CNC(=O)[C@@H]2C[C@@H](O)CN2C(=O)[C@@H](NC(=O)[C@H]2CCC3(CC2)C[C@H](N2CCC(c4cnc(N5CCN6c7cc(-c8ccccc8O)nnc7NC[C@H]6C5)nc4)CC2)C3)C(C)(C)C)c(OCCCN(C)C)c1 (single isomer, unassigned) [I-129] , what DC50 is on record?
10 to 100 nM

Note, next up: `C#Cc1ccc(CNC(=O)[C@@H]2C[C@@H](O)CN2C(=O)[C@@H](NC(=O)c2ccc(N3CCC(N4CCC(N5CCN6c7cc(-c8ccccc8O)nnc7NC[C@H]6C5)CC4)CC3)cc2)C(C)(C)C)cc1`
10 to 100 nM

Note, next up: C#Cc1ccc(CNC(=O)[C@@H]2C[C@@H](O)CN2C(=O)[C@@H](NC(=O)[C@H]2CC3(CC[C@H](N4CCN(c5cnc(N6CCc7[nH]c8nnc(-c9ccccc9O)cc8c7[C@H]6C)nc5)CC4)CC3)C2)C(C)(C)C)cc1 (single isomer, unassigned) [I-285]
> 100 nM

Note, next up: `C#Cc1ccc(CNC(=O)[C@@H]2C[C@@H](O)CN2C(=O)[C@@H](NC(=O)N2CCN(C3CC4(CCN(c5cnc(N6CCN7c8cc(-c9ccccc9O)nnc8NC[C@H]7C6)nc5)CC4)C3)CC2)C(C)(C)C)cc1`
> 100 nM

Note, next up: C#Cc1ccc(CNC(=O)[C@@H]2C[C@@H](O)CN2C(=O)[C@@H](NC(=O)[C@H]2CC3(C2)C[C@H](N2CCC(N4CCC(N5CCN6c7cc(-c8ccccc8O)nnc7NC[C@H]6C5)CC4)CC2)C3)C(C)(C)C)c(OC)c1 (single isomer, unassigned) [I-232]
10 to 100 nM

Note, next up: Cc1ncsc1-c1ccc(CNC(=O)[C@@H]2C[C@@H](O)CN2C(=O)C(c2cc(N3CCC(CCN4CCC(c5cnc(N6CCc7[nH]c8nnc(-c9ccccc9O)cc8c7[C@@H]6C)nc5)CC4)CC3)no2)C(C)C)cc1 (single isomer, unassigned)
10 to 100 nM

Note, next up: `C#Cc1ccc(CNC(=O)[C@@H]2C[C@@H](O)CN2C(=O)[C@@H](N(CCOC)C(=O)N2CC3(CC(N4CCC(c5cnc(N6CCc7[nH]c8nnc(-c9ccccc9O)cc8c7[C@H]6C)nc5)CC4)C3)C2)C(C)(C)C)cc1`
> 100 nM

Note, next up: Cc1ncsc1-c1ccc(CNC(=O)[C@@H]2C[C@@H](O)CN2C(=O)C(c2cc(N3CCC4(CC3)CC(N3CCC(c5cnc(N6CCc7[nH]c8nnc(-c9ccccc9O)cc8c7[C@@H]6C)nc5)CC3)C4)no2)C(C)C)cc1 (single isomer, unassigned)
10 to 100 nM

Note, next up: Cc1ncsc1-c1ccc(CNC(=O)[C@@H]2C[C@@H](O)CN2C(=O)[C@@H](NC(=O)C2(F)CC2)C(C)(C)C)c(O[C@H]2CC[C@@H](N3CCC(c4cnc(N5CCc6[nH]c7nnc(-c8ccccc8O)cc7c6[C@H]5C)nc4)CC3)CC2)c1 (single isomer, unassigned)
> 100 nM

Note, next up: C#Cc1cnc(CNC(=O)[C@@H]2C[C@@H](O)CN2C(=O)[C@@H](NC(=O)[C@H]2CCC3(CC2)C[C@H](N2CCC(c4cnc(N5CCN6c7cc(-c8ccccc8O)nnc7NC[C@H]6C5)nc4)CC2)C3)C(C)(C)C)c(OC)c1 (single isomer, unassigned) [I-286]
> 100 nM

###

# measured_on: SMARCA4 (Homo sapiens, UniProt P51532)
# Construct: SMARCA2/SMARCA4 protein degradation selectivity in MV4-11 cells; endogenous in cells; host or cells: MV4-11
# protocol_details: SMARCA4 Western blot degradation in MV4-11 cells
# Assay type: cell-based
# run_conditions: MV4-11 cells
measure_name: SMARCA4 MSD MV411 degradation 24 h: average Dmax %

molecule	measured_on	value_observed
Cc1ncsc1-c1ccc(CNC(=O)[C@@H]2C[C@@H](O)CN2C(=O)[C@@H](NC(=O)[C@H]2CC3(C2)C[C@H](N2CCC(c4ccnc(N5CCN6c7cc(-c8ccccc8O)nnc7NC[C@H]6C5)n4)CC2)C3)C(C)(C)C)cc1 (single isomer, unassigned) [I-27]	SMARCA4 (Homo sapiens, UniProt P51532)	D (D (<50% degradation))
Cc1ncsc1-c1ccc(CNC(=O)[C@@H]2C[C@@H](O)CN2C(=O)[C@@H](NC(=O)[C@H]2CC3(C2)C[C@H](N2CCN(c4cnc(N5CCc6[nH]c7nnc(-c8ccccc8O)cc7c6[C@H]5C)nc4)CC2)C3)C(C)(C)C)cc1 (single isomer, unassigned) [I-77]	SMARCA4 (Homo sapiens, UniProt P51532)	D (D (<50% degradation))

###

# measured_on: UniProt:P51531
# protocol_details: SMARCA2 Western blot degradation in MV4-11 cells
# Format: cell-based
# Design: SMARCA2/SMARCA4 protein degradation selectivity in MV4-11 cells; endogenous in cells; host or cells: MV4-11
# run_conditions: SMARCA2/4 selectivity, MV4-11 cells

compound	Selectivity in MV411
Cc1ncsc1-c1ccc(CNC(=O)[C@@H]2C[C@@H](O)CN2C(=O)[C@@H](NC(=O)[C@H]2CC3(C2)C[C@H](N2CCC(N4CCC(c5ccc6[nH]c7nnc(-c8ccccc8O)cc7c6c5)CC4)CC2)C3)C(C)(C)C)cc1 (single isomer, unassigned) [I-28]	C (C (10-100 fold))
C#Cc1ccc(CNC(=O)[C@@H]2C[C@@H](O)CN2C(=O)[C@@H](NC(=O)[C@H]2CCC3(CC2)C[C@H](N2CCN(c4cnc(N5CCN6c7cc(-c8ccccc8O)nnc7NC[C@H]6C5)nc4)CC24CC4)C3)C(C)(C)C)cc1 (stereo partly shown) [I-267]	B (B (>100-500 fold))
C#Cc1ccc(CNC(=O)[C@@H]2C[C@@H](O)CN2C(=O)[C@@H](NC(=O)[C@H]2CC3(C2)C[C@H](N2CCN(C(=O)CCN4CCN5c6cc(-c7ccccc7O)nnc6NC[C@H]5C4)CC2)C3)C(C)(C)C)cc1 (stereo partly shown) [I-275]	C (C (10-100 fold))
C#Cc1ccc(CNC(=O)[C@@H]2C[C@@H](O)CN2C(=O)[C@@H](NC(=O)[C@H]2CCC3(CC2)C[C@H](N2CCN(c4cnc(N5CCN6c7cc(-c8ccccc8O)nnc7NC[C@H]6C5)nc4)CC2)C3)C(C)(C)CCO)c(Cl)c1 (single isomer, unassigned) [I-312]	B (B (>100-500 fold))
